System: antibodies in sera from SARS patients (sera 1a, 1b, 2, 6, 37, 62, London, SARS-yellow, SARS-green)
Assay type: binding, human
Parameters: unit not given here
PROPERTY_NAME: Binding of serum SARS-green to looped/cyclic peptides of protein N of SARS-CoV Urbani
Lab note: record just the number, no unit beside it.

Below are worked cases with known answers.
[
  {
    "CHAIN": "SSSRSRGNSRNSTPG",
    "REPORTED": 0.1
  },
  {
    "CHAIN": "RQLQNSMSGASADST",
    "REPORTED": 0.1
  },
  {
    "CHAIN": "PKKDKKKKTDEAQPL",
    "REPORTED": 0.1
  }
]

# evaluate next
## Input Please indicate Binding of serum SARS-green to looped/cyclic peptides of protein N of SARS-CoV Urbani recorded for GQGVPINTNSGPDDQ
## Output 0.1

---

The reader will find reported Binding of serum 37 to linear peptides of protein N of SARS-CoV Urbani values listed item by item below.
System: antibodies in sera from SARS patients (sera 1a, 1b, 2, 6, 37, 62, London, SARS-yellow, SARS-green)
Type: binding, human
Parameters: unit not given here

Some solved cases for reference:
[
  {
    "CHAIN": "TVTLLPAADMDDFSR",
    "REPORTED": 0.7
  },
  {
    "CHAIN": "DDQIGYYRRATRRVR",
    "REPORTED": 0.7
  },
  {
    "CHAIN": "PLPQRQKKQPTVTLL",
    "REPORTED": 0.5
  },
  {
    "CHAIN": "RATRRVRGGDGKMKE",
    "REPORTED": 0.8
  },
  {
    "CHAIN": "RGGDGKMKELSPRWY",
    "REPORTED": 0.7
  },
  {
    "CHAIN": "GIVWVATEGALNTPK",
    "REPORTED": 0.9
  }
]

Now turn to the next sequence.
## Input Give Binding of serum 37 to linear peptides of protein N of SARS-CoV Urbani for YKTFPPTEPKKDKKK
## Output 0.7

---

Test system: rabbit serum obtained by immunizing a rabbit with the SARS-CoV strain Frankfurt 1
Assay type: binding
Design: unit not given here
PROPERTY_NAME: Binding of a rabbit serum to looped peptides

Known results for sequences:
[
  {
    "CHAIN": "VKPTVYVYSRVKNLN",
    "TARGET_SYSTEM": "rabbit serum obtained by immunizing a rabbit with the SARS-CoV strain Frankfurt 1",
    "REPORTED": 0.7
  },
  {
    "CHAIN": "GTHITMTTVYHITVS",
    "TARGET_SYSTEM": "rabbit serum obtained by immunizing a rabbit with the SARS-CoV strain Frankfurt 1",
    "REPORTED": 0.4
  }
]

Below: the item to evaluate.
## Input In one line, give reported Binding of a rabbit serum to looped peptides of the entry SPKFTTSLSLHKLLQ .
## Output 0.5

---

Tested on: antibodies in sera from SARS patients (sera 1a, 1b, 2, 6, 37, 62, London, SARS-yellow, SARS-green)
Assay type: binding, human
Mark label 1 for Binding of serum 6 to looped/cyclic peptides of protein X2 of SARS-CoV Urbani under 0.4, label 0 if at or over.

[
  {
    "CHAIN": "QELLIQQWIQFMMSR",
    "CLASS_LABEL": "label 0"
  },
  {
    "CHAIN": "LIQQWIQFMMSRRRL",
    "CLASS_LABEL": "label 0"
  },
  {
    "CHAIN": "TSLLKTHRMCKYTQS",
    "CLASS_LABEL": "label 1"
  },
  {
    "CHAIN": "SSLTSLLKTHRMCKY",
    "CLASS_LABEL": "label 1"
  },
  {
    "CHAIN": "SSSLTSLLKTHRMCK",
    "CLASS_LABEL": "label 1"
  },
  {
    "CHAIN": "STALQELLIQQWIQF",
    "CLASS_LABEL": "label 1"
  },
  {
    "CHAIN": "HSSSLTSLLKTHRMC",
    "CLASS_LABEL": "label 1"
  }
]

## Input Determine whether this sequence shows Binding of serum 6 to looped/cyclic peptides of protein X2 of SARS-CoV Urbani lower than 0.4 (ties excluded): KLLQTLVLKMLHSSS
## Output label 0
